Data origin, for the record: patent US20070021419A1

Tested on: A549
protocol-details: 72-h MTT cytotoxicity assay, A549
Assay type: cell-based
setup-conditions: Homo sapiens, read-out: 72-h MTT IC50 A549, A549 cell line
Record form. Attribute: IC50. Fill in for each entry.
Write the answer as a number in µM, unit excluded.

The reported A549 IC50 of O=[N+]([O-])c1cccc(Nc2nccc(-c3cccc(CN4CCCC(CCO)C4)c3)n2)c1 (centres unmarked) [Compound 100] is 0.56

The reported A549 IC50 of CCN(C(C)=O)c1cccc(-c2ccnc(Nc3ccc(O)cc3)n2)c1 [Compound 10] is 8

The reported A549 IC50 of O=[N+]([O-])c1cccc(Nc2nccc(-c3cccc(Cn4ccnc4)c3)n2)c1 [Compound 29] is 3.6

The reported A549 IC50 of Oc1cccc(Nc2nccc(-c3cccc(Cn4cncn4)c3)n2)c1 [Compound 34] is 4.1

The reported A549 IC50 of COc1ccc(OC)c(-c2ccnc(Nc3ccc(OC)nc3)n2)c1 [Compound 52] is 20.5

The reported A549 IC50 of CN(C)Cc1cccc(-c2ccnc(Nc3ccc(N4CCOCC4)cc3)n2)c1 [Compound 82] is 6.2

The reported A549 IC50 of c1cc(Cn2cncn2)cc(-c2ccnc(Nc3ccc(N4CCOCC4)cc3)n2)c1 [Compound 32] is 19.7

The reported A549 IC50 of Oc1cccc(Nc2nccc(-c3ccc(Cl)c(Cl)c3)n2)c1 [Compound 22] is 43.5

The reported A549 IC50 of O=[N+]([O-])c1cccc(Nc2nccc(-c3cccc(CN4CCCCC4CO)c3)n2)c1 (centres unmarked) [Compound 79] is 0.33

The reported A549 IC50 of Oc1ccc(Nc2nccc(-c3ccc(Cl)c(Cl)c3)n2)cc1 [Compound 21] is 11.7

The reported A549 IC50 of COc1ccc(Nc2nccc(-c3cccc(CN4CCCCC4CO)c3)n2)cn1 (centres unmarked) [Compound 102] is 17

The reported A549 IC50 of NC(=O)C1CCCN(Cc2cccc(-c3ccnc(Nc4cccc([N+](=O)[O-])c4)n3)c2)C1 (centres unmarked) [Compound 99] is 3

The reported A549 IC50 of O=[N+]([O-])c1cccc(Nc2nccc(-c3cccc(CN4CCCC4CNc4ccccc4)c3)n2)c1 (centres unmarked) [Compound 86] is 49.3

The reported A549 IC50 of CCN(C(C)=O)c1cccc(-c2ccnc(Nc3ccc(OC)cc3)n2)c1 [Compound 23] is 12.9

The reported A549 IC50 of Oc1ccc(Nc2nccc(-c3cccc(Cn4cncn4)c3)n2)cc1 [Compound 33] is 10.3

The reported A549 IC50 of CC(=O)N(Cc1cccc(-c2ccnc(Nc3cccc([N+](=O)[O-])c3)n2)c1)C(C)C [Compound 78] is 3.7

The reported A549 IC50 of O=[N+]([O-])c1cccc(-c2ccnc(Nc3ccc(O)cc3)n2)c1 [Compound 1] is 14.5

The reported A549 IC50 of CN(Cc1cccc(-c2ccnc(Nc3cccc([N+](=O)[O-])c3)n2)c1)S(=O)(=O)c1cccc([N+](=O)[O-])c1 [Compound 85] is 76.9

The reported A549 IC50 of O=[N+]([O-])c1cccc(Nc2nccc(-c3cccc(CN4CCOCC4)c3)n2)c1 [Compound 39] is 6.8

The reported A549 IC50 of CCN(Cc1cccc(-c2ccnc(Nc3ccc(OC)nc3)n2)c1)C(C)C [Compound 53] is 2.2

The reported A549 IC50 of Oc1cccc(Nc2nccc(-c3cccc(CNCc4ccccc4)c3)n2)c1 [Compound 28] is 8

The reported A549 IC50 of COc1ccc(Nc2nccc(-c3cccc(Cn4cncn4)c3)n2)cc1 [Compound 42] is 10.6

The reported A549 IC50 of CC(=O)Nc1cccc(-c2ccnc(Nc3ccc(O)cc3)n2)c1 [Compound 11] is 8.3

The reported A549 IC50 of CN(C)Cc1cccc(-c2ccnc(Nc3ccc(O)cc3)n2)c1 [Compound 81] is 1.5

The reported A549 IC50 of COc1ccc(OC)c(-c2ccnc(Nc3cccc([N+](=O)[O-])c3)n2)c1 [Compound 44] is 1.5

The reported A549 IC50 of Clc1ccc(Nc2nccc(-c3cccc(CNCc4ccccc4)c3)n2)cn1 [Compound 48] is 13.4

The reported A549 IC50 of O=[N+]([O-])c1cccc(Nc2nccc(-c3cccc(Cn4cncn4)c3)n2)c1 [Compound 30] is 8

The reported A549 IC50 of CN(C)c1ccc(Nc2nccc(-c3ccc(Cl)c(Cl)c3)n2)cc1 [Compound 20] is 35.5

The reported A549 IC50 of OCC1CCCCN1Cc1cccc(-c2ccnc(Nc3cccc(O)c3)n2)c1 (centres unmarked) [Compound 103] is 6.9

* * *

Record form. Attribute: pIC50. Fill in for each entry.
assay-target: CDK4/cyclin D1 (Homo sapiens)
Sequence (P11802 whole entry, species assumed): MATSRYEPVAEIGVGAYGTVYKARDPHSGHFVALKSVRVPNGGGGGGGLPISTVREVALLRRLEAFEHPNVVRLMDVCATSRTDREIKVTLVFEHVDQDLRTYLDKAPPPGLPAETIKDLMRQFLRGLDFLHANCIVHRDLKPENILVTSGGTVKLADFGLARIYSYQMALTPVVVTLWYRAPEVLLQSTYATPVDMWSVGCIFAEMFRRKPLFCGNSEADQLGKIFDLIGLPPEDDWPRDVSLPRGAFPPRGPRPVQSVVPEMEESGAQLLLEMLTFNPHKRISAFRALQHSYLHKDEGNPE
Sequence (P24385 whole entry partner, species assumed): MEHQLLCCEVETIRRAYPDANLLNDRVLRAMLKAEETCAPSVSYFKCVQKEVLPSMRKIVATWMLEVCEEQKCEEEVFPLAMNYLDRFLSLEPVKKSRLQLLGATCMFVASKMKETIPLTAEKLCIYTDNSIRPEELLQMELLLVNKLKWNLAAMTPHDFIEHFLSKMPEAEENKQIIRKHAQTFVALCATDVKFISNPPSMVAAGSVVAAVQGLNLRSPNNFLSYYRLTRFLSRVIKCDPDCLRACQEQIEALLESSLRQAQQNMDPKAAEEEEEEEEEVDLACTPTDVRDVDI
protocol-details: Kinase assay, radioactive phosphate incorporation, CDK4/cyclin D1
Format: biochemical
setup-conditions: 100 μM ATP, 30° C.; read-out: Kinase inhibition IC50 CDK4/cyclin D1
Remember, pIC50 is on a log scale: it is -log10 of the molar concentration.

pIC50 reading for Cc1ccc(Nc2nccc(-c3cccc(CN4CCCCC4CO)c3)n2)cc1[N+](=O)[O-] (centres unmarked) : 5.77

pIC50 reading for "COc1ccc(Nc2nccc(-c3cccc(Cn4ccnc4)c3)n2)cn1" : 5.42

pIC50 reading for "CN(C)Cc1cccc(-c2ccnc(Nc3cccc([N+](=O)[O-])c3)n2)c1" : 6.70

pIC50 reading for "COc1ccc(-c2ccnc(Nc3ccc(OC)nc3)n2)cc1" : 5.82

pIC50 reading for "N#Cc1cccc(-c2ccnc(Nc3cccc(O)c3)n2)c1" : 5.85

* * *

Record form. Attribute: pIC50. Fill in for each entry.
assay-target: CDK1/cyclin B (Homo sapiens, UniProt P06493)
Sequence (P06493 whole entry, species assumed): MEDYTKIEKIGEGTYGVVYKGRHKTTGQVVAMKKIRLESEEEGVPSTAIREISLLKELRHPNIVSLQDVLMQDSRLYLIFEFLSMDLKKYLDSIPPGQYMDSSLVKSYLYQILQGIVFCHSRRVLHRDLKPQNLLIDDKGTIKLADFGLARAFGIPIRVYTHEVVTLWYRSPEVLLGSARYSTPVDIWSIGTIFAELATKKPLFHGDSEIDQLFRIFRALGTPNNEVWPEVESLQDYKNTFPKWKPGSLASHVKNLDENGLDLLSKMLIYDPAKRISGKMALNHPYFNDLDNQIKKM
Sequence (P14635 whole entry partner, species assumed): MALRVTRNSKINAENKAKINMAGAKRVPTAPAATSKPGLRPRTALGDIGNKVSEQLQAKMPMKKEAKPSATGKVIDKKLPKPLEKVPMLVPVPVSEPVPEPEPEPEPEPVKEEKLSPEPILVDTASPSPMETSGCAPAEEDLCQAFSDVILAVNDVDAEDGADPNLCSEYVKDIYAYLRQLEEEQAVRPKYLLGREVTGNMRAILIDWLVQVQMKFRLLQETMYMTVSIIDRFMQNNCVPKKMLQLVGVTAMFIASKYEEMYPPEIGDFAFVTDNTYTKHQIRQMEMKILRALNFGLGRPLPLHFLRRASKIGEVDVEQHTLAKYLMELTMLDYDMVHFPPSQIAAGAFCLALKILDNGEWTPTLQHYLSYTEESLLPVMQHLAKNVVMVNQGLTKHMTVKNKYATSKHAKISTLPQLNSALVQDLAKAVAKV
protocol-details: Kinase assay, radioactive phosphate incorporation, CDK1/cyclin B
setup-conditions: 100 μM ATP, 30° C.; read-out: Kinase inhibition IC50 CDK1/cyclin B
Remember, pIC50 is on a log scale: it is -log10 of the molar concentration.

pIC50 reading for Cc1ccc(Nc2nccc(-c3cccc(CN4CCCCC4CO)c3)n2)cc1[N+](=O)[O-] (stereo not drawn) [Compound 108] : 5.96

pIC50 reading for CCN(Cc1cccc(-c2ccnc(Nc3ccc(OC)nc3)n2)c1)C(C)C [Compound 53] : 5.41

pIC50 reading for CN(C)Cc1cccc(-c2ccnc(Nc3ccc(N4CCOCC4)cc3)n2)c1 [Compound 82] : 5.96

pIC50 reading for Oc1cccc(Nc2nccc(-c3cccc(CNCc4ccccc4)c3)n2)c1 [Compound 28] : 5.68

pIC50 reading for CCN(C(C)=O)c1cccc(-c2ccnc(Nc3ccc(OC)cc3)n2)c1 [Compound 23] : 5.44

pIC50 reading for CN(C)Cc1cccc(-c2ccnc(Nc3cccc([N+](=O)[O-])c3)n2)c1 [Compound 71] : 8.00

pIC50 reading for CN1CCN(Cc2cccc(-c3ccnc(Nc4cccc([N+](=O)[O-])c4)n3)c2)CC1 [Compound 54] : 5.70

pIC50 reading for CCNc1cccc(-c2ccnc(Nc3ccc([N+](=O)[O-])cc3)n2)c1 [Compound 26] : 5.89

pIC50 reading for O=[N+]([O-])c1cccc(Nc2nccc(-c3cccc(Cn4ccnc4)c3)n2)c1 [Compound 29] : 5.66

* * *

Record form. Attribute: IC50. Fill in for each entry.
assay-target: CDK2/cyclin E (Homo sapiens, UniProt P24941)
protocol-details: Kinase assay, radioactive phosphate incorporation, CDK2/cyclin E
setup-conditions: 100 μM ATP, 30° C.; read-out: Kinase inhibition IC50 CDK2/cyclin E

The reported CDK2/cyclin E (Homo sapiens, UniProt P24941) IC50 of "Clc1ccc(Nc2nccc(-c3cccc(CNCc4ccccc4)c3)n2)cn1" is 1300 nM

The reported CDK2/cyclin E (Homo sapiens, UniProt P24941) IC50 of "O=[N+]([O-])c1cccc(Nc2nccc(-c3cccc(CNCc4ccccc4)c3)n2)c1" is 570 nM

The reported CDK2/cyclin E (Homo sapiens, UniProt P24941) IC50 of "CCNc1cccc(-c2ccnc(Nc3ccc(OC)cc3)n2)c1" is 39 nM

The reported CDK2/cyclin E (Homo sapiens, UniProt P24941) IC50 of O=[N+]([O-])c1cccc(Nc2nccc(-c3cccc(CN4CCCC(CO)C4)c3)n2)c1 (stereo not drawn) is 70 nM

The reported CDK2/cyclin E (Homo sapiens, UniProt P24941) IC50 of "CN(c1cccc(-c2ccnc(Nc3cccc(O)c3)n2)c1)S(C)(=O)=O" is 220 nM

The reported CDK2/cyclin E (Homo sapiens, UniProt P24941) IC50 of "CCN(Cc1cccc(-c2ccnc(Nc3cccc([N+](=O)[O-])c3)n2)c1)C(C)C" is 170 nM

The reported CDK2/cyclin E (Homo sapiens, UniProt P24941) IC50 of "Cc1ccc(C)c(-c2ccnc(Nc3cccc(O)c3)n2)c1" is 1800 nM

The reported CDK2/cyclin E (Homo sapiens, UniProt P24941) IC50 of "COc1ccc(OC)c(-c2ccnc(Nc3cccc([N+](=O)[O-])c3)n2)c1" is 17000 nM

The reported CDK2/cyclin E (Homo sapiens, UniProt P24941) IC50 of "CCNc1cccc(-c2ccnc(Nc3ccc([N+](=O)[O-])cc3)n2)c1" is 33 nM

The reported CDK2/cyclin E (Homo sapiens, UniProt P24941) IC50 of O=[N+]([O-])c1cccc(Nc2nccc(-c3cccc(CN4CCCCC4CO)c3)n2)c1 (stereo not drawn) is < 1 nM

The reported CDK2/cyclin E (Homo sapiens, UniProt P24941) IC50 of "c1ccc(Nc2nccc(-c3ccccc3)n2)cc1" is 18000 nM

The reported CDK2/cyclin E (Homo sapiens, UniProt P24941) IC50 of "O=[N+]([O-])c1cccc(-c2ccnc(Nc3ccc(O)cc3)n2)c1" is 1600 nM

The reported CDK2/cyclin E (Homo sapiens, UniProt P24941) IC50 of "CN1CCN(Cc2cccc(-c3ccnc(Nc4cccc([N+](=O)[O-])c4)n3)c2)CC1" is 300 nM

The reported CDK2/cyclin E (Homo sapiens, UniProt P24941) IC50 of "O=[N+]([O-])c1cccc(Nc2nccc(-c3cccc(Cn4cncn4)c3)n2)c1" is 40 nM

The reported CDK2/cyclin E (Homo sapiens, UniProt P24941) IC50 of "COc1ccc(-c2ccnc(Nc3ccc(O)cc3)n2)cc1" is 120 nM

The reported CDK2/cyclin E (Homo sapiens, UniProt P24941) IC50 of "CC(=O)Nc1cccc(-c2ccnc(Nc3ccc(O)cc3)n2)c1" is 250 nM

The reported CDK2/cyclin E (Homo sapiens, UniProt P24941) IC50 of "COc1ccc(Nc2nccc(-c3cccc(Cn4cncn4)c3)n2)cn1" is 1800 nM

The reported CDK2/cyclin E (Homo sapiens, UniProt P24941) IC50 of "COc1ccc(-c2ccnc(Nc3cccc(O)c3)n2)cc1" is 10 nM
